Target: T1, Hera_RBD (Thermus thermophilus, UniProt O07897 424-510)
T1 sequence: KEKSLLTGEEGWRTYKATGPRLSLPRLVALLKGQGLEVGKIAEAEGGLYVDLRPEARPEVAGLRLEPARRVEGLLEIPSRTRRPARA
Assay: ITC; 5 mM Mg2+; estimate, no initial baseline; Anisotropy: 50 mM Tris/HCl pH 7.5, 150 mM NaCl, 5 mM MgCl2 (Fig 2), 25 C, 50 nM RNA; EMSA: same Tris/NaCl, 12% glycerol, 25 C; NMR: 25 mM Bis-Tris/HCl pH 6.0, 50 mM NaCl, 10% D2O, 37 C
Settings: protein: recombinant; label: none (NMR, ITC); 5'-fluorescein (EMSA); hairpin with 5' single strand
outcomeMeasure: Kd

Lookup: Need Kd, item GGGUUGGGCUGUUCGCCCAUU (structured_RNA) [21mer]
Found: ~40 µM
